Where these numbers come from: the supplement of paper PMC8617591

# key: entry, value: total FIC50
Test system: Mycobacterium tuberculosis Erdman (autoluminescent)
assay: total FIC50 (Loewe) at 50% inhibition, three-drug combination (log2); higher = more antagonistic
run-parameters: in vitro model: cholesterol-high 0.2 mM; time point: constant (~7 days, model-specific)

Fill in reported total FIC50 for this entry: CC[C@@H](CO)NCCN[C@@H](CC)CO [ethambutol] + NC(=O)c1cnccn1 [pyrazinamide] + CO[C@H]1/C=C/O[C@@]2(C)Oc3c(C)c(O)c4c(O)c(c(/C=N/N5CCN(C)CC5)c(O)c4c3C2=O)NC(=O)/C(C)=C\C=C\[C@H](C)[C@H](O)[C@@H](C)[C@@H](O)[C@@H](C)[C@H](OC(C)=O)[C@@H]1C [rifampicin]
1.12

# next molecule below
Fill in reported total FIC50 for this entry: COc1nc2ccc(Br)cc2cc1[C@@H](c1ccccc1)[C@@](O)(CCN(C)C)c1cccc2ccccc12 [bedaquiline] + CC(C)/N=c1\cc2n(-c3ccc(Cl)cc3)c3ccccc3nc-2cc1Nc1ccc(Cl)cc1 [clofazimine] + CC[C@@H](CO)NCCN[C@@H](CC)CO [ethambutol]
0.329

====

Tested on: Mycobacterium tuberculosis Erdman (autoluminescent)
assay: GRinf, maximum normalised growth rate inhibition (three-drug combination) (unitless (-1 to 1)); higher = less effect (negative = killing)
run-parameters: in vitro model: cholesterol-high 0.2 mM; time point: terminal (~4-5 doublings, model-specific)
Response key: fulfilled means GRinf >= -0.8; not fulfilled means GRinf < -0.8.

Could you please find out whether CC(=O)NC[C@H]1CN(c2ccc(N3CCOCC3)c(F)c2)C(=O)O1 [linezolid] + NC(=O)c1cnccn1 [pyrazinamide] + CO[C@H]1/C=C/O[C@@]2(C)Oc3c(C)c(O)c4c(O)c(c(/C=N/N5CCN(C6CCCC6)CC5)c(O)c4c3C2=O)NC(=O)/C(C)=C\C=C\[C@H](C)[C@H](O)[C@@H](C)[C@@H](O)[C@@H](C)[C@H](OC(C)=O)[C@@H]1C [rifapentine] has GRinf that meets -0.8 or exceeds it?
not fulfilled

Could you please find out whether CC[C@@H](CO)NCCN[C@@H](CC)CO [ethambutol] + O=[N+]([O-])c1cn2c(n1)OC[C@@H](OCc1ccc(OC(F)(F)F)cc1)C2 [pretomanid] + CO[C@H]1/C=C/O[C@@]2(C)Oc3c(C)c(O)c4c(O)c(c(/C=N/N5CCN(C6CCCC6)CC5)c(O)c4c3C2=O)NC(=O)/C(C)=C\C=C\[C@H](C)[C@H](O)[C@@H](C)[C@@H](O)[C@@H](C)[C@H](OC(C)=O)[C@@H]1C [rifapentine] has GRinf that meets -0.8 or exceeds it?
fulfilled

Could you please find out whether NNC(=O)c1ccncc1 [isoniazid] + O=[N+]([O-])c1cn2c(n1)OC[C@@H](OCc1ccc(OC(F)(F)F)cc1)C2 [pretomanid] + NC(=O)c1cnccn1 [pyrazinamide] has GRinf that meets -0.8 or exceeds it?
fulfilled

Could you please find out whether CC(=O)NC[C@H]1CN(c2ccc(N3CCOCC3)c(F)c2)C(=O)O1 [linezolid] + O=[N+]([O-])c1cn2c(n1)OC[C@@H](OCc1ccc(OC(F)(F)F)cc1)C2 [pretomanid] + CO[C@H]1/C=C/O[C@@]2(C)Oc3c(C)c(O)c4c(O)c(c(/C=N/N5CCN(C)CC5)c(O)c4c3C2=O)NC(=O)/C(C)=C\C=C\[C@H](C)[C@H](O)[C@@H](C)[C@@H](O)[C@@H](C)[C@H](OC(C)=O)[C@@H]1C [rifampicin] has GRinf that meets -0.8 or exceeds it?
fulfilled

***
Could you please find out whether CC[C@@H](CO)NCCN[C@@H](CC)CO [ethambutol] + CC(=O)NC[C@H]1CN(c2ccc(N3CCOCC3)c(F)c2)C(=O)O1 [linezolid] + O=[N+]([O-])c1cn2c(n1)OC[C@@H](OCc1ccc(OC(F)(F)F)cc1)C2 [pretomanid] has GRinf that meets -0.8 or exceeds it?
not fulfilled
